Origin of the recorded values: patent US20240132624A1

Parameter: koff. Scope: all listed entries.
- System Tested: T1, cyno FcRn/b2M (cyno, UniProt Q8SPV9 24-297; Q8SPW0 21-119, biotinylated)
- T1 construct: bought recombinant biotinylated protein (Immunitrack ITF05 or ACRO FCM-C82W5); also called cFcRn; cFcRn/cb2M
- T1 sequence (Q8SPV9 24-297 limits assumed, chain 1 of 2): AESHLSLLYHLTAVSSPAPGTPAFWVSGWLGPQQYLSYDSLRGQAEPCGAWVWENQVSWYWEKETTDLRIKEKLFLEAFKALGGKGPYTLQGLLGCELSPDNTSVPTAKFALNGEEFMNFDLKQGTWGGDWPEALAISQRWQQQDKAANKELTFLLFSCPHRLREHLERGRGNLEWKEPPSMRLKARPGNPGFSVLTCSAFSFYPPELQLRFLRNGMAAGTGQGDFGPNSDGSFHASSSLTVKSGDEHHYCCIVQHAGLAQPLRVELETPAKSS
- T1 sequence (Q8SPW0 21-119 limits assumed, chain 2 of 2): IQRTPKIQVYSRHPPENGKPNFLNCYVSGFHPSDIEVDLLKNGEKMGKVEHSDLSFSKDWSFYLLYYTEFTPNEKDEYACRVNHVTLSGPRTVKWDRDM
- Assay Remarks: SPR pH 6.0;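 further: surface plasmon resonance kinetics at 25 °C, diluted periplasmic extracts injected over immobilized ligand surfaces, 120 s association then 600–3600 s dissociation, running buffer containing 150 mM NaCl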
Experimental Readout: koff (s⁻¹)

1) T0263018B11 Y32S (VHH, name in Kabat numbering, FLAG3-His6 tagged) VHH: EVQLVESGGGVVQPGGSLRLSCAASGFTFSSSAMYWVRQAPGKGLEWVSAISSGGGSTDYADSVKGRFTISRDNSKNTLYLQMNSLRPEDTALYYCAADTLYTSLTWYSYWGQGTLVTVSS: 0.0028
2) T0263018B11 S52aG (VHH, name in Kabat numbering, FLAG3-His6 tagged) VHH: EVQLVESGGGVVQPGGSLRLSCAASGFTFSSYAMYWVRQAPGKGLEWVSAISGGGGSTDYADSVKGRFTISRDNSKNTLYLQMNSLRPEDTALYYCAADTLYTSLTWYSYWGQGTLVTVSS: 0.0006
